- System: Ba/F3 KIT mutant cells
- assayOverview: Ba/F3 mutant KIT Cell Proliferation Assays (resazurin)
- Assay type: cell-based
- testContext: Mus musculus, BaF3; Ba/F3 KIT exon11del-V654A mutant cell proliferation; read-out: exon11del-V654A IC50
- Source text: Ba/F3 KIT Mutant Cell Line Transduction and Expansion Several different KIT cDNA encoding various primary and secondary mutations were cloned into a pLV(Exp]-CMV>(cDNA):IRES:puro vector. These vectors were constructed and packaged by VectorBuilder. […] A serial dilution of test compound was dispensed into a 384-well black clear bottom plate (Corning, Corning, NY). […] Plates were read on a Synergy2 reader (Biotek, Winooski, VT) using an excitation of 540 nm and an emission of 600 nm. […]
pIC50: −log10 of the molar value.

- compound: "COCCOc1cc(F)c2c(Nc3ccc(NC(=O)CC(=O)N4CC[C@@H](C)C4)cc3)ncnc2c1 [Example 198]"
  pIC50: "6.00 to 7.00"
- compound: "COCCOc1cc(F)c2c(Nc3ccc(NC(=O)CC(=O)N4CCCC[C@@H]4C(F)(F)F)cc3)ncnc2c1 [Example 170]"
  pIC50: "7.00 to 8.00"
- compound: "COCCOc1cc(F)c2c(Nc3ccc(NC(=O)CC(=O)N4CCCC4C(F)(F)F)cc3)ncnc2c1 (stereo not shown) [Example 169]"
  pIC50: "6.00 to 7.00"
- compound: "CC(C)(C#N)CCNC(=O)Nc1ccc(Nc2ncnc3cc(OCCN4CCOCC4)cc(F)c23)cc1 [Example 104]"
  pIC50: "≥ 8.00"
- compound: "CCN(CC)C(=O)CC(=O)Nc1ccc(Nc2ncnc3cc(OCCOC)cc(F)c23)cc1 [Example 184]"
  pIC50: "6.00 to 7.00"
- compound: "COCCOc1cc(F)c2c(Nc3ccc(NC(=O)C4(C(=O)N(C)CC(C)C)CC4)cc3)ncnc2c1 [Example 72]"
  pIC50: "6.00 to 7.00"
- compound: "COCCOc1cc(F)c2c(Nc3ccc(NC(=O)CC(=O)N4CCCC(C)(C)C4)cc3)ncnc2c1 [Example 166]"
  pIC50: "7.00 to 8.00"

---

Below are pIC50 values recorded for c-KIT kinase (uKIT) (Homo sapiens (Human)).
pIC50: −log10 of the molar value.

- compound: "COCCOc1cc(F)c2c(Nc3ccc(NC(=O)CC(=O)N(C)CC(C)(C)C)cc3)ncnc2c1 [Example 51]"
  pIC50: "7.00 to 8.00"
- compound: "COCCOc1ccc2c(Nc3ccc(NC(=O)CC(=O)NCC(C)(C)C)cc3)ccnc2c1 [Example 223]"
  pIC50: "6.00 to 7.00"
- compound: "COCCOc1cc(F)c2c(Nc3ccc(NC(=O)CC(=O)NCCC(C)(C)C)cc3)ncnc2c1 [Example 82]"
  pIC50: "≥ 8.00"
- compound: "COCCOc1cc(F)c2c(Nc3ccc(NC(=O)CCC(=O)N(C)C(C)C)cc3)ncnc2c1 [Example 67]"
  pIC50: "7.00 to 8.00"
- compound: "COCCOc1cc(F)c2c(Nc3ccc(NC(=O)CC(=O)N4CCCCC4)cc3)ncnc2c1 [Example 187]"
  pIC50: "6.00 to 7.00"
- compound: "COCCOc1cc(F)c2c(Nc3ccc(NC(=O)NCC=C(C)C)cc3)ncnc2c1 [Example 133]"
  pIC50: "≥ 8.00"
- compound: "CN1CC[C@H](Oc2cc(F)c3c(Nc4ccc(NC(=O)NCCC(C)(C)F)cc4)ncnc3c2)C1 [Example 172]"
  pIC50: "7.00 to 8.00"
- compound: "CN(C)CCOc1cc(F)c2c(Nc3ccc(NC(=O)NCCC(C)(C)F)cc3)ncnc2c1 [Example 68]"
  pIC50: "≥ 8.00"
- compound: "COCCOc1cc(F)c2c(Nc3ccc(NC(=O)NCCC(C)(C)OC)nc3)ncnc2c1 [Example 24]"
  pIC50: "6.00 to 7.00"
- compound: "COc1cc(F)c2c(Nc3ccc(NC(=O)NCCC(C)(C)C#N)cc3)ncnc2c1 [Example 219]"
  pIC50: "7.00 to 8.00"
- compound: "CO[C@H](C)COc1cc(F)c2c(Nc3ccc(NC(=O)NCCC(C)(C)F)cc3)ncnc2c1 [Example 156]"
  pIC50: "≥ 8.00"
- compound: "COCCOc1cc(F)c2c(Nc3ccc(NC(=O)C4(C(=O)NCC(C)C)CC4)cc3)ncnc2c1 [Example 71]"
  pIC50: "7.00 to 8.00"
- compound: "COCCOc1cc(F)c2c(Nc3ccc(NC(=O)NCC4COC4)cc3)ncnc2c1 [Example 11]"
  pIC50: "7.00 to 8.00"
- compound: "COCCOc1ccc2ncnc(Nc3ccc(NC(=O)CC(=O)NC4CCC4)cc3)c2c1F [Example 207]"
  pIC50: "6.00 to 7.00"
- compound: "COCCCc1ccc2c(Nc3ccc(NC(=O)CC(=O)NCC(C)(C)C)cc3)cnnc2c1 [Example 193]"
  pIC50: "7.00 to 8.00"
- compound: "COCCOc1cc(F)c2c(Nc3ccc(NC(=O)C4(C(=O)N(C)CC(C)(C)C)CC4)cc3)ncnc2c1 [Example 50]"
  pIC50: "6.00 to 7.00"
- compound: "COC[C@@H](C)Oc1cc(F)c2c(Nc3ccc(NC(=O)NCCC(C)(C)F)cc3)ncnc2c1 [Example 155]"
  pIC50: "≥ 8.00"
- compound: "COCCOc1cc(F)c2c(Nc3ccc(NC(=O)CC4CCN(C)CC4)cc3)ncnc2c1 [Example 40]"
  pIC50: "< 6.00"
- compound: "COCCOc1cc(F)c2c(Nc3ccc(NC(=O)CC(=O)N4CCOCC4)cc3)ncnc2c1 [Example 185]"
  pIC50: "6.00 to 7.00"
- compound: "CCN(C(=O)CC(=O)Nc1ccc(Nc2ncnc3cc(OCCOC)cc(F)c23)cc1)C(C)C [Example 146]"
  pIC50: "6.00 to 7.00"
- compound: "COCCOc1cc(OC)c2c(Nc3ccc(NC(=O)CC(=O)N(C)C(C)(C)C)cc3)ncnc2c1 [Example 192]"
  pIC50: "7.00 to 8.00"
- compound: "CC(C)(F)CCNC(=O)Nc1ccc(Nc2ncnc3cc(OC4CCOCC4)cc(F)c23)cc1 [Example 138]"
  pIC50: "≥ 8.00"
- compound: "COCCOc1cc(F)c2c(Nc3ccc(NC(=O)NCC4CCOCC4)cc3)ncnc2c1 [Example 13]"
  pIC50: "7.00 to 8.00"
- compound: "COCCOc1cc(OC)c2c(Nc3ccc(NC(=O)NCCC(C)(C)F)cc3)ncnc2c1 [Example 181]"
  pIC50: "≥ 8.00"
- compound: "COC[C@H](C)Oc1cc(F)c2c(Nc3ccc(NC(=O)NCCC(C)(C)F)cc3)ncnc2c1 [Example 157]"
  pIC50: "7.00 to 8.00"

---

- Test system: Ba/F3 KIT mutant cells
- assayOverview: Ba/F3 mutant KIT Cell Proliferation Assays (resazurin)
- Type: cell-based
- testContext: Mus musculus, BaF3; Ba/F3 KIT exon11del-V654A mutant cell proliferation; read-out: exon11del-V654A IC50
pIC50: −log10 of the molar value.
Reported pIC50 is given for each of the following molecules.

- molecule: "COCCOc1cc(F)c2c(Nc3ccc(NC(=O)CNC(=O)CC(C)(C)C)cc3)ncnc2c1 [Example 102]"
  testedTarget: "Ba/F3 KIT mutant cells"
  pIC50: "7.00 to 8.00"
- molecule: "COCCOc1cc(F)c2c(Nc3ccc(NC(=O)CC(=O)NCC4CC4)cc3)ncnc2c1 [Example 77]"
  testedTarget: "Ba/F3 KIT mutant cells"
  pIC50: "≥ 8.00"
- molecule: "COCCOc1cc(F)c2c(Nc3ccc(NC(=O)CC(=O)NCCC(C)(C)OC)cc3)ncnc2c1 [Example 107]"
  testedTarget: "Ba/F3 KIT mutant cells"
  pIC50: "7.00 to 8.00"
- molecule: "COCCOc1cc(F)c2c(Nc3ccc(NC(=O)COCC4CC4)cc3)ncnc2c1 [Example 57]"
  testedTarget: "Ba/F3 KIT mutant cells"
  pIC50: "7.00 to 8.00"
- molecule: "COCCCOc1cc(F)c2c(Nc3ccc(NC(=O)NCCC(C)(C)F)cc3)ncnc2c1 [Example 120]"
  testedTarget: "Ba/F3 KIT mutant cells"
  pIC50: "≥ 8.00"
- molecule: "COCCOc1cc(F)c2c(Nc3ccc(NC(=O)COCC(F)(F)F)cc3)ncnc2c1 [Example 48]"
  testedTarget: "Ba/F3 KIT mutant cells"
  pIC50: "6.00 to 7.00"
- molecule: "COCCOc1cc(F)c2c(Nc3ccc(NC(=O)NCCC(C)(C)F)cc3)ncnc2c1 [Example 2]"
  testedTarget: "Ba/F3 KIT mutant cells"
  pIC50: "7.00 to 8.00"
- molecule: "COCCOc1cc(F)c2c(Nc3ccc(NC(=O)CC(=O)NCC4CCC4)cc3)ncnc2c1 [Example 90]"
  testedTarget: "Ba/F3 KIT mutant cells"
  pIC50: "≥ 8.00"
- molecule: "COc1cc2ncnc(Nc3ccc(NC(=O)NCCC(C)(C)F)cc3)c2cc1OC [Example 209]"
  testedTarget: "Ba/F3 KIT mutant cells"
  pIC50: "6.00 to 7.00"
